METHOD_SUMMARY: Cytotoxicity against human breast cancer cells after 48 hrs
Assay type: functional
STUDY_CONDITIONS: Cancer cell lines
Please assign class 0 whenever TGI is at or above 20 µM, and class 1 whenever it is below.

Q: Please determine if "COc1cc(/C=C2\C(=O)Nc3ccc(N(C)C)cc32)cc(OC)c1OC" is below 20 µM in terms of TGI.
Result: class 0

Q: Please determine if "COc1ccc(CN2C(=O)/C(=C\c3cc(OC)c(OC)c(OC)c3)c3ccccc32)cc1" is below 20 µM in terms of TGI.
Result: class 1

Q: Please determine if "COc1cc(/C=C2/C(=O)Nc3cc(C)c(O)cc32)cc(OC)c1OC" is below 20 µM in terms of TGI.
Result: class 1

Q: Please determine if "COc1cc(/C=C2/C(=O)N(C)c3ccc(O)cc32)cc(OC)c1OC" is below 20 µM in terms of TGI.
Result: class 1

Q: Please determine if "COc1cc(/C=C2\C(=O)Nc3ccc(Br)cc32)cc(OC)c1OC" is below 20 µM in terms of TGI.
Result: class 0

Q: Please determine if "COc1cc(/C=C2\C(=O)N(Cc3ccc(Cl)cc3)c3ccccc32)cc(OC)c1OC" is below 20 µM in terms of TGI.
Result: class 1

Q: Please determine if "COc1ccc(CN2C(=O)/C(=C/c3cc(OC)c(OC)c(OC)c3)c3cc(OC)ccc32)cc1" is below 20 µM in terms of TGI.
Result: class 1

Q: Please determine if "COc1cc(/C=C2\C(=O)N(C)c3ccc(Cl)cc32)cc(OC)c1OC" is below 20 µM in terms of TGI.
Result: class 1

* * *

METHOD_SUMMARY: Cytotoxicity against human melanoma cells after 48 hrs
Type: functional
STUDY_CONDITIONS: Melanoma cell
READOUT: TGI (µM)
// units = µM; emit number, no label

Q: Report measured TGI; entry is "COc1cc(/C=C2\C(=O)Nc3ccc(N(C)C)cc32)cc(OC)c1OC"
Result: 42.7

Q: Report measured TGI; entry is "COc1cc(/C=C2\C(=O)Nc3cc(OC(F)(F)F)ccc32)cc(OC)c1OC"
Result: 10.7

Q: Report measured TGI; entry is "COc1cc(/C=C2/C(=O)N(C)c3ccc(O)cc32)cc(OC)c1OC"
Result: 16.2

Q: Report measured TGI; entry is "COc1cc(/C=C2/C(=O)Nc3cc(C)c(O)cc32)cc(OC)c1OC"
Result: 16.6

Q: Report measured TGI; entry is "COc1ccc(OC)c2c1NC(=O)/C2=C\c1cc(OC)c(OC)c(OC)c1"
Result: 18.6

* * *

METHOD_SUMMARY: Cytotoxicity against human ovarian cancer cells after 48 hrs
Assay type: functional
STUDY_CONDITIONS: Cancer cell lines, read-out: LC50 (the source's name)
Please assign Criterion not met whenever CC50 is at or above 70 µM, and Criterion met whenever it is below.

Q: Please determine if "COc1cc(/C=C2/C(=O)Nc3cc(C)c(O)cc32)cc(OC)c1OC" is below 70 µM in terms of CC50.
Result: Criterion not met

Q: Please determine if "COc1cc(/C=C2\C(=O)Nc3cc(OC(F)(F)F)ccc32)cc(OC)c1OC" is below 70 µM in terms of CC50.
Result: Criterion met

Q: Please determine if "COc1ccc(CN2C(=O)/C(=C/c3cc(OC)c(OC)c(OC)c3)c3cc(OC)ccc32)cc1" is below 70 µM in terms of CC50.
Result: Criterion met

Q: Please determine if "COc1cc(/C=C2\C(=O)Nc3cc(Cl)ccc32)cc(OC)c1OC" is below 70 µM in terms of CC50.
Result: Criterion met

Q: Please determine if "COc1cc(/C=C2/C(=O)N(C)c3ccc(O)cc32)cc(OC)c1OC" is below 70 µM in terms of CC50.
Result: Criterion not met

Q: Please determine if "COc1cc(/C=C2\C(=O)N(C)c3ccc(Cl)cc32)cc(OC)c1OC" is below 70 µM in terms of CC50.
Result: Criterion not met

Q: Please determine if "COc1cc(/C=C2\C(=O)N(Cc3ccc(Cl)cc3)c3ccccc32)cc(OC)c1OC" is below 70 µM in terms of CC50.
Result: Criterion met

Q: Please determine if "COc1ccc(OC)c2c1NC(=O)/C2=C\c1cc(OC)c(OC)c(OC)c1" is below 70 µM in terms of CC50.
Result: Criterion not met

Q: Please determine if CC[C@]1(O)C[C@H]2CN(CCc3c([nH]c4ccccc34)[C@@](C(=O)OC)(c3cc4c(cc3OC)N(C=O)[C@H]3[C@@](O)(C(=O)OC)[C@H](OC(C)=O)[C@]5(CC)C=CCN6CC[C@]43[C@@H]65)C2)C1 [VINCRISTINE] is below 70 µM in terms of CC50.
Result: Criterion not met

Q: Please determine if "COc1ccc(CN2C(=O)/C(=C\c3cc(OC)c(OC)c(OC)c3)c3ccccc32)cc1" is below 70 µM in terms of CC50.
Result: Criterion met

Q: Please determine if "COc1cc(/C=C2\C(=O)Nc3ccc(N(C)C)cc32)cc(OC)c1OC" is below 70 µM in terms of CC50.
Result: Criterion not met

* * *

METHOD_SUMMARY: Cytotoxicity against human prostate cancer cells after 48 hrs
Type: functional
STUDY_CONDITIONS: Cancer cell lines, read-out: LC50 (the source's name)
Please assign not fulfilled whenever CC50 is at or above 60 µM, and fulfilled whenever it is below.

Q: Please determine if "COc1cc(/C=C2\C(=O)Nc3cc(OC(F)(F)F)ccc32)cc(OC)c1OC" is below 60 µM in terms of CC50.
Result: not fulfilled

Q: Please determine if "COc1cc(/C=C2\C(=O)N(Cc3ccc(Cl)cc3)c3ccccc32)cc(OC)c1OC" is below 60 µM in terms of CC50.
Result: fulfilled

Q: Please determine if "COc1cc(/C=C2/C(=O)Nc3cc(C)c(O)cc32)cc(OC)c1OC" is below 60 µM in terms of CC50.
Result: not fulfilled

Q: Please determine if "COc1cc(/C=C2/C(=O)N(C)c3ccc(O)cc32)cc(OC)c1OC" is below 60 µM in terms of CC50.
Result: fulfilled

Q: Please determine if "COc1ccc(CN2C(=O)/C(=C/c3cc(OC)c(OC)c(OC)c3)c3cc(OC)ccc32)cc1" is below 60 µM in terms of CC50.
Result: not fulfilled

Q: Please determine if "COc1cc(/C=C2\C(=O)Nc3cc(Cl)ccc32)cc(OC)c1OC" is below 60 µM in terms of CC50.
Result: fulfilled

Q: Please determine if CC[C@]1(O)C[C@H]2CN(CCc3c([nH]c4ccccc34)[C@@](C(=O)OC)(c3cc4c(cc3OC)N(C=O)[C@H]3[C@@](O)(C(=O)OC)[C@H](OC(C)=O)[C@]5(CC)C=CCN6CC[C@]43[C@@H]65)C2)C1 [VINCRISTINE] is below 60 µM in terms of CC50.
Result: not fulfilled

* * *

METHOD_SUMMARY: Cytotoxicity against human leukemia cells after 48 hrs
Format: functional
STUDY_CONDITIONS: Leukemia cell
Please assign n whenever GI50 is at or above 2000 nM, and y whenever it is below.

Q: Please determine if "COc1cc(/C=C2\C(=O)Nc3cc(Cl)ccc32)cc(OC)c1OC" is below 2000 nM in terms of GI50.
Result: y

Q: Please determine if "COc1cc(/C=C2\C(=O)N(Cc3ccc(Cl)cc3)c3ccccc32)cc(OC)c1OC" is below 2000 nM in terms of GI50.
Result: y

Q: Please determine if "COc1cc(/C=C2/C(=O)N(C)c3ccc(O)cc32)cc(OC)c1OC" is below 2000 nM in terms of GI50.
Result: n

Q: Please determine if "COc1ccc2c(c1)/C(=C\c1cc(OC)c(OC)c(OC)c1)C(=O)N2C" is below 2000 nM in terms of GI50.
Result: y

Q: Please determine if "COc1cc(/C=C2\C(=O)N(C)c3ccc(Cl)cc32)cc(OC)c1OC" is below 2000 nM in terms of GI50.
Result: n

Q: Please determine if "COc1ccc(CN2C(=O)/C(=C/c3cc(OC)c(OC)c(OC)c3)c3cc(OC)ccc32)cc1" is below 2000 nM in terms of GI50.
Result: n

Q: Please determine if "COc1ccc(OC)c2c1NC(=O)/C2=C\c1cc(OC)c(OC)c(OC)c1" is below 2000 nM in terms of GI50.
Result: n

Q: Please determine if "COc1cc(/C=C2\C(=O)Nc3cc(OC(F)(F)F)ccc32)cc(OC)c1OC" is below 2000 nM in terms of GI50.
Result: n

Q: Please determine if "COc1ccc(CN2C(=O)/C(=C\c3cc(OC)c(OC)c(OC)c3)c3ccccc32)cc1" is below 2000 nM in terms of GI50.
Result: n

Q: Please determine if "COc1cc(/C=C2/C(=O)Nc3cc(C)c(O)cc32)cc(OC)c1OC" is below 2000 nM in terms of GI50.
Result: y

Q: Please determine if "COc1cc(/C=C2\C(=O)Nc3ccc(Br)cc32)cc(OC)c1OC" is below 2000 nM in terms of GI50.
Result: n

Q: Please determine if "COc1cc(/C=C2\C(=O)Nc3ccc(N(C)C)cc32)cc(OC)c1OC" is below 2000 nM in terms of GI50.
Result: y
